These data points were gathered from patent EP0037780A1.

- protocolDetails: Solubility
- Assay type: physicochemical
- conditionDescription: propylene glycol, organic solvent or mixture; dans le propylène glycol; read-out: Solubilité
readoutLabel: solubility (µg/mL)
Number only, in µg/mL; omit the unit.

q: Give the measured solubility of CC(C)=CCCC(C)CCOCC(O)CNC(C)C (stereo not shown) .
a: 10000

* * *

- protocolDetails: Solubility
- Assay type: physicochemical
- conditionDescription: water; dans l'eau; read-out: Solubilité
readoutLabel: solubility (mg/mL)
Number only, in mg/mL; omit the unit.

> print(dat)
                               compound  unitofmeasurement  testvalue
1  CCCCOCC(O)CNC(C)C (centres unmarked)              mg/mL         50

// next item, solubility requested
q: Give the measured solubility of CCCCOCC(O)CNC(C)(C)C (centres unmarked) .
a: 10
